Where do these numbers come from? They come from ChEMBL document CHEMBL5724914.

experimental.protocol: The drug is tested on Z-027 corresponding to metagenome with ENA study accession number: PRJEB37062 and ENA sample accession number: ERS12561826 for biotransformation under anaerobic condition. The drug concentrations were measured over 9 timepoints collected between 0 and 24 hours of incubation by liquid-chromatography-coupled mass spectrometry (LC–MS); also: call rule not given here
assay.setup: 2 µM
value.type: Bacterial Biotransformation

> print(dat)
                                   compound            endpoint.value
1  CC(C(=O)O)c1ccc2c(c1)Cc1cccnc1O2 (centres undefined)      Compound metabolized
2  CCN1CCCC1CNC(=O)c1cc(S(N)(=O)=O)ccc1OC (centres undefined) [SULPIRIDE]  Compound NOT metabolized
3  CCCCCCOC(=O)/N=C(/N)c1ccc(NCc2nc3cc(C(=O)N(CCC(=O)OCC)c4ccccn4)ccc3n2C)cc1.CS(=O)(=O)O [DABIGATRAN ETEXILATE MESYLATE]  Compound NOT metabolized
4  CC(=O)OCC(=O)[C@@]12N=C(C)O[C@@H]1C[C@H]1[C@@H]3CCC4=CC(=O)C=C[C@]4(C)[C@H]3[C@@H](O)C[C@@]12C      Compound metabolized

Can you give me Bacterial Biotransformation for all of these, one by one?
1. Nc1nc2ccc(OC(F)(F)F)cc2s1
2. CCCc1nc2c(C)cc(-c3nc4ccccc4n3C)cc2n1Cc1ccc(-c2ccccc2C(=O)O)cc1

a:
1. Compound NOT metabolized
2. Compound metabolized

* * *

assay.setup: human gut metagenome, 24 h, 2 µM
value.type: Bacterial Biotransformation

Consider the reported Bacterial Biotransformation for these compounds:
> print(dat)
                                   compound            endpoint.value
1  CC(O)(CS(=O)(=O)c1ccc(F)cc1)C(=O)Nc1ccc(C#N)c(C(F)(F)F)c1 (configuration not stated) [BICALUTAMIDE]  Compound NOT metabolized
2  Cc1nc2n(c(=O)c1CCN1CCC(c3noc4cc(F)ccc34)CC1)CCCC2  Compound NOT metabolized
3  CCc1nn(CCCN2CCN(c3cccc(Cl)c3)CC2)c(=O)n1CCOc1ccccc1      Compound metabolized
4  CS(=O)(=O)O.O.O.O.O=C1Cc2cc(CCN3CCN(c4nsc5ccccc45)CC3)c(Cl)cc2N1 [ZIPRASIDONE MESYLATE]      Compound metabolized
5  COc1cc2nc(N(C)CCCNC(=O)C3CCCO3)nc(N)c2cc1OC (configuration not stated)      Compound metabolized

Can you give me Bacterial Biotransformation for all of these, one by one?
1. CC(=O)OCC(=O)[C@@]1(O)[C@@H](C)C[C@H]2[C@@H]3CCC4=CC(=O)C=C[C@]4(C)[C@@]3(F)[C@@H](O)C[C@@]21C [BETAMETHASONE ACETATE]
2. CC(C)N(CCC(C(N)=O)(c1ccccc1)c1ccccn1)C(C)C.O=P(O)(O)O (configuration not stated) [DISOPYRAMIDE PHOSPHATE]

a:
1: Compound metabolized; 2: Compound metabolized

* * *

assay.setup: human gut metagenome, 24 h, 2 µM
value.type: Bacterial Biotransformation

Consider the reported Bacterial Biotransformation for these compounds:
> print(dat)
                                   compound            endpoint.value
1  CC(C(=O)O)c1ccc2c(c1)Cc1cccnc1O2 (stereo not drawn) [PRANOPROFEN]      Compound metabolized
2  OCCN1CCN(CCCN2c3ccccc3Sc3ccc(C(F)(F)F)cc32)CC1 [FLUPHENAZINE]      Compound metabolized
3  CN(C)CC(c1ccc(O)cc1)C1(O)CCCCC1.O=C(O)CCC(=O)O (stereo not drawn) [DESVENLAFAXINE SUCCINATE]  Compound NOT metabolized
4  Fc1ccc([C@@H]2CCNC[C@H]2COc2ccc3c(c2)OCO3)cc1 [PAROXETINE]  Compound NOT metabolized
5  C=CCN1CC[C@]23c4c5ccc(O)c4O[C@H]2C(=O)CC[C@@]3(O)[C@H]1C5 [NALOXONE]  Compound NOT metabolized
6  O=c1[nH]c2ccccc2n1CCCN1CCC(n2c(=O)[nH]c3cc(Cl)ccc32)CC1 [DOMPERIDONE]  Compound NOT metabolized
7  CCOC(=O)[C@H](CCc1ccccc1)N[C@@H](C)C(=O)N1[C@H](C(=O)O)C[C@@H]2CCC[C@@H]21      Compound metabolized
8  Clc1ccc(Cn2c(CN3CCCC3)nc3ccccc32)cc1 [CLEMIZOLE]  Compound NOT metabolized

Can you give me Bacterial Biotransformation for all of these, one by one?
1. CC(=O)O[C@]1(C(C)=O)CC[C@H]2[C@@H]3C=C(Cl)C4=CC(=O)[C@@H]5C[C@@H]5[C@]4(C)[C@H]3CC[C@@]21C [CYPROTERONE ACETATE]
2. CC(C)NCC(O)c1ccc(NS(C)(=O)=O)cc1 (stereo not drawn) [SOTALOL]

a:
Compound metabolized
Compound NOT metabolized

Can you give me Bacterial Biotransformation for all of these, one by one?
1. CN1CCc2c(c3ccccc3n2Cc2ccccc2)C1.CN1CCc2c(c3ccccc3n2Cc2ccccc2)C1.O=S(=O)(O)c1cccc2c(S(=O)(=O)O)cccc12
2. COc1cc2nc(N3CCN(C(=O)c4ccco4)CC3)nc(N)c2cc1OC [PRAZOSIN]
3. O=c1n(CCCN2CCN(c3cccc(Cl)c3)CC2)nc2ccccn12 [TRAZODONE]
4. CC(=O)OCC(=O)[C@@]12N=C(C)O[C@@H]1C[C@H]1[C@@H]3CCC4=CC(=O)C=C[C@]4(C)[C@H]3[C@@H](O)C[C@@]12C [DEFLAZACORT]
5. CCN(CC)CCNC(=O)c1cc(Cl)c(N)cc1OC [METOCLOPRAMIDE]
6. COc1ccc2[nH]c([S+]([O-])Cc3ncc(C)c(OC)c3C)nc2c1 (stereo not drawn) [OMEPRAZOLE]

a:
1: Compound NOT metabolized; 2: Compound NOT metabolized; 3: Compound NOT metabolized; 4: Compound metabolized; 5: Compound NOT metabolized; 6: Compound metabolized
